Molecular target: H4-stimulated PARP1 (human Parp-1) (Homo sapiens)
Experiment: Inhibition of H4-stimulated PARP1 activation
Type: biochemical
Details: H4/PARP Inhibition IC50, histone H4-coated plates, human Parp-1, NAD+
Binning rule for recorded IC50: bucket A: < 60 nM; bucket B: ≥ 60 nM and < 100 nM; bucket C: ≥ 100 nM

Observe how each entry below is paired with its result.
COMPOUND: CCCC[N+]1(CC(=O)OC2CCCCCCCCCCC2)CCCCC1 [Compound 12]
ASSIGNED_CATEGORY: bucket C
--
COMPOUND: C[N+]1(CC(=O)OC2CCCCCCCCCCC2)CCNCC1.[I-] [Compound 7]
ASSIGNED_CATEGORY: bucket C
--
COMPOUND: C[N+]1(CC(=O)OC2CCCCC2)CCCCC1 [Compound 16]
ASSIGNED_CATEGORY: bucket B

Task: For C[N+]1(CC(=O)OC2CCCCCCCCCCC2)CCOCC1.[I-] [Compound 5] , which IC50 bin applies?
Result: bucket A

----------
Measured IC50 accompanies every entry in the list below.
Target: H4-stimulated PARP1 (human Parp-1) (Homo sapiens, UniProt P09874)
Sequence (P09874 whole entry): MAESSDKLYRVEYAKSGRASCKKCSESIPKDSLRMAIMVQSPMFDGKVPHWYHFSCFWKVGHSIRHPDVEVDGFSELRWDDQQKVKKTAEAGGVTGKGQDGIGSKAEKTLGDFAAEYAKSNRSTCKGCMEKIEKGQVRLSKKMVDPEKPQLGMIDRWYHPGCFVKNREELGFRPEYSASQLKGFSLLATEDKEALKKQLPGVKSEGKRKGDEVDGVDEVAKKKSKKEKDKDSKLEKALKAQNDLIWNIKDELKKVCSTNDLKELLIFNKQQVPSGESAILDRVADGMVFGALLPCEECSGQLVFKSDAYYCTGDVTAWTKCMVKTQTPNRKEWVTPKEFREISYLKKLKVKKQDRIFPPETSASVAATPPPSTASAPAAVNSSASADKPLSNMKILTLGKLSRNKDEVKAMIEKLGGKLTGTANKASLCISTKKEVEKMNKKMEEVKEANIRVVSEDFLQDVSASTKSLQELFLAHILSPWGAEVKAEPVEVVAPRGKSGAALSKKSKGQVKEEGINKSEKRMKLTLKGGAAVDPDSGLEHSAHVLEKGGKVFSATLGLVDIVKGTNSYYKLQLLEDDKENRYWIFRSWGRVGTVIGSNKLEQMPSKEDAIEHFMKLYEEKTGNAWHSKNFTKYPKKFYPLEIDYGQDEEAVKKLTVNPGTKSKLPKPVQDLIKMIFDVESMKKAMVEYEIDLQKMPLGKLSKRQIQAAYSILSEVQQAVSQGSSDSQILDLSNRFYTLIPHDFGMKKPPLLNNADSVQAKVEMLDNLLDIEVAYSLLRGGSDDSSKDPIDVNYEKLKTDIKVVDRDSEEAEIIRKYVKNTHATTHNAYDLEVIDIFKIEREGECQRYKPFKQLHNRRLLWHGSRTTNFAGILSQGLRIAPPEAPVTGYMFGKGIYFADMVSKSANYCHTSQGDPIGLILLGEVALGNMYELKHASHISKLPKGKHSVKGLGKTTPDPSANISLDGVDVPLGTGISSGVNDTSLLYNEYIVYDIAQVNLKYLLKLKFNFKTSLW
Assay: Inhibition of H4-stimulated PARP1 activation
Assay type: biochemical
Conditions: H4/PARP Inhibition IC50, histone H4-coated plates, human Parp-1, NAD+
# number only, unit nM dropped from output

COMPOUND: C[N+]1(CC(=O)OC2CCCCCCCCCCC2)CCC(Cc2ccccc2)CC1 (stereo not shown)
TARGET_DESC: H4-stimulated PARP1 (human Parp-1) (Homo sapiens, UniProt P09874)
IC50, nM: 61.8
--
COMPOUND: CCC[N+]1(CC(=O)OC2CCCCCCCCCCC2)CCCCC1
TARGET_DESC: H4-stimulated PARP1 (human Parp-1) (Homo sapiens, UniProt P09874)
IC50, nM: 142
--
COMPOUND: C[N+]1(CC(=O)OC2CCCCCCCCCCC2)CCCCC1.[I-]
TARGET_DESC: H4-stimulated PARP1 (human Parp-1) (Homo sapiens, UniProt P09874)
IC50, nM: 104

Task: Which IC50 is reported for this compound? `CC[N+]1(CC(=O)OC2CCCCCCCCCCC2)CCCCC1.[I-]`
Result: 174

Task: Could you do the same for `C[N+]1(CC(=O)OC2CCCCCCCCC2)CCCCC1` , please?
Result: 53.7

Task: Could you do the same for `C[N+]1(CC(=O)OC2CCCCCCCCCCC2)CCCCCC1` , please?
Result: 54

Task: Could you do the same for `CCCCC[N+]1(CC(=O)OC2CCCCCCCCCCC2)CCCCC1` , please?
Result: 258

Task: Could you do the same for `CC1(C)CC[N+](C)(CC(=O)OC2CCCCCCCCCCC2)CC1.[I-]` , please?
Result: 45.6

Task: Could you do the same for `C[N+]1(CC(=O)OC2CCCCCCC2)CCCCC1` , please?
Result: 80

Task: Could you do the same for `C[N+]1(CC(=O)OC2CCCC2)CCCCC1.[I-]` , please?
Result: 57.1

Recorded values, source paper PMC7560981.
